Cited source: ChEMBL document CHEMBL5729289

Target: Tyrosine-protein kinase JAK3 (Homo sapiens, UniProt P52333)
Sequence (P52333 whole entry): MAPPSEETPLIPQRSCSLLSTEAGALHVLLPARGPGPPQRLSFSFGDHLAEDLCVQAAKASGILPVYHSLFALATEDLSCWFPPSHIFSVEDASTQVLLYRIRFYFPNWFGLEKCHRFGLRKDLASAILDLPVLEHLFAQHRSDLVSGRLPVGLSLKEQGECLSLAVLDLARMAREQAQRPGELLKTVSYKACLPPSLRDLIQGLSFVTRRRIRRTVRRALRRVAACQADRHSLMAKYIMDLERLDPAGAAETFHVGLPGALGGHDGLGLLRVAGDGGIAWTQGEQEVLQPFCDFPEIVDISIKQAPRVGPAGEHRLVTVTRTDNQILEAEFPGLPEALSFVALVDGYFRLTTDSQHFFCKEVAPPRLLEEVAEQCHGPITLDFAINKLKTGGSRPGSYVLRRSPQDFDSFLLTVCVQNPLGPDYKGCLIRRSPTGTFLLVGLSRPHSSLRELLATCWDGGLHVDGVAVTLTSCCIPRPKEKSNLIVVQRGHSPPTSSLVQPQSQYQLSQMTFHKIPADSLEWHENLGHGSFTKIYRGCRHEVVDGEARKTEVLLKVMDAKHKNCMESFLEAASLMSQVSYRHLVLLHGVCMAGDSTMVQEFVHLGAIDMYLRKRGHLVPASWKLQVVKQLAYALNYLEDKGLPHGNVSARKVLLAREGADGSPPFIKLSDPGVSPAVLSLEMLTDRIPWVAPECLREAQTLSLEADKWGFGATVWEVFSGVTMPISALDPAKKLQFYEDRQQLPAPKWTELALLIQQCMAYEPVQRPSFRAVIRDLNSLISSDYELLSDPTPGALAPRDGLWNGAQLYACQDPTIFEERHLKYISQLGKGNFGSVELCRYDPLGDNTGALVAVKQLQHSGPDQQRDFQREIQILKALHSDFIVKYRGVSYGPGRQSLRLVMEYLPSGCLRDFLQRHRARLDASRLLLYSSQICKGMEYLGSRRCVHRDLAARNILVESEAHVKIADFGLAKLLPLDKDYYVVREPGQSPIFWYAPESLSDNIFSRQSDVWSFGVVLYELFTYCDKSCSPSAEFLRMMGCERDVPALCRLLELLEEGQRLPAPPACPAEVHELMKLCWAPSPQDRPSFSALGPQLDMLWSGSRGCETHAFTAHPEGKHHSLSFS
ENDPOINT_NAME: IC50

Query block: Identify measured IC50 corresponding to CC1(C(=O)NC2CC=C(c3cccc4nc(NC(=O)C5CC5)nn34)CC2)CC1(F)F (stereo unspecified)
Result block: > 10 µM

----------
molecular target: Tyrosine-protein kinase JAK2 (Homo sapiens)
Sequence (O60674 whole entry): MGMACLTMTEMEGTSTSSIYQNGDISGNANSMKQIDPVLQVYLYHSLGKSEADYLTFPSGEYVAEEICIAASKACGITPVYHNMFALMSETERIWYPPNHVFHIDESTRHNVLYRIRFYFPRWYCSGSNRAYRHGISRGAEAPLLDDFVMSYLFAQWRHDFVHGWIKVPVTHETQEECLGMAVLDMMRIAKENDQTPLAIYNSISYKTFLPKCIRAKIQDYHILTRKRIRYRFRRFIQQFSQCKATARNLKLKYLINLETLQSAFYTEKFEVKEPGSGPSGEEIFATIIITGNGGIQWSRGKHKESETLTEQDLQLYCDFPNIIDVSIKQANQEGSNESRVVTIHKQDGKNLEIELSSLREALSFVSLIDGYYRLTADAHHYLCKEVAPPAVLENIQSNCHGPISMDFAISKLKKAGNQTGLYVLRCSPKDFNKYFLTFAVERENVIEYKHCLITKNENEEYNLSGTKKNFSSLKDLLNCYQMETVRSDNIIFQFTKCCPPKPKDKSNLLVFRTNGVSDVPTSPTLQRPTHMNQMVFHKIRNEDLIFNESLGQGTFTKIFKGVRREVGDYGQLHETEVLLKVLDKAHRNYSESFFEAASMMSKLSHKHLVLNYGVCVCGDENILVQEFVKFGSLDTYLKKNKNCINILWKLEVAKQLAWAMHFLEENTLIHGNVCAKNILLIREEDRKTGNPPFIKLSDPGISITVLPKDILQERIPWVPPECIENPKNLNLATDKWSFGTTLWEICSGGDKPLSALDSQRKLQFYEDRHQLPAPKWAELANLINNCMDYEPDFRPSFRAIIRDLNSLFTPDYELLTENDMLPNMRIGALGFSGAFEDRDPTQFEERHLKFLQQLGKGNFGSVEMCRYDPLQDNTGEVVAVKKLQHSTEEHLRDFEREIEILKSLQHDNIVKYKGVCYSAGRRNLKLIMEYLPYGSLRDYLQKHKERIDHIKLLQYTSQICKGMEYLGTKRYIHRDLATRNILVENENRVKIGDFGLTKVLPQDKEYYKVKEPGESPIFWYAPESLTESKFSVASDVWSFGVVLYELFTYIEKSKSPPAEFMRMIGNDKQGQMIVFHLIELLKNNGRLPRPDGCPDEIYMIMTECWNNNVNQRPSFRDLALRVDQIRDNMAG
ENDPOINT_NAME: pIC50
# pIC50 = -log10(concentration in molar units)

Query block: Identify measured pIC50 corresponding to CC1(C(=O)NC2CC=C(c3cccc4nc(NC(=O)C5CC5)nn34)CC2)CC1(F)F (stereo unspecified)
Result block: 5.94
